// data source = patent US20070082883A1

- System Under Test: HIV-1 protease (Human immunodeficiency virus type 1 group M subtype B, UniProt P04585)
- Construct: made in house; host or cells: E. coli BL21 (dE3)pLysS, pET30a vector
- Assay Info: HIV-1 Protease Inhibition Assay
- Format: biochemical
- Condition Notes: fluorogenic substrate assay
# key: entry, value: IC50

Answered examples (5):
Compound	System Under Test	Result Type	Reported
Cc1ccc(S(=O)(=O)N(C[C@@H](O)[C@H](Cc2ccccc2)NC(=O)OC2CC3CCO[C@@H]3C2)C2CCOC2)cc1CO (stereo partly drawn)	HIV-1 protease (Human immunodeficiency virus type 1 group M subtype B, UniProt P04585)	IC50	4.1 nM
O=C(N[C@@H](Cc1ccccc1)[C@H](O)CN1CCCCCCCCCCOc2cccc(c2)S1(=O)=O)O[C@@H]1CC2CCO[C@@H]2C1 (stereo partly drawn)	HIV-1 protease (Human immunodeficiency virus type 1 group M subtype B, UniProt P04585)	IC50	11 nM
COc1ccc(S(=O)(=O)N(CC(=O)[C@H](Cc2ccc(OCc3ccccc3)cc2)NC(=O)OC(C)(C)C)CC(C)C)cc1	HIV-1 protease (Human immunodeficiency virus type 1 group M subtype B, UniProt P04585)	IC50	> 2300 nM
CC(C)CN(C[C@@H](O)[C@H](Cc1ccccc1)NC(=O)O[C@@H]1CC2CCO[C@@H]2C1)S(=O)(=O)c1ccc(N)cc1 (stereo partly drawn)	HIV-1 protease (Human immunodeficiency virus type 1 group M subtype B, UniProt P04585)	IC50	2.2 nM
COc1ccc(S(=O)(=O)N(CC(C)C)C[C@@H](O)[C@H](Cc2ccc(O)cc2)NC(=O)O[C@H]2CO[C@H]3OCCC32)cc1 (stereo partly drawn)	HIV-1 protease (Human immunodeficiency virus type 1 group M subtype B, UniProt P04585)	IC50	4.1 nM

Query: Entry CN(C)CCN(C[C@@H](O)[C@H](Cc1ccccc1)NC(=O)OC1CC2CCO[C@@H]2C1)S(=O)(=O)c1ccc(F)c(N)c1 (stereo partly drawn) : reported IC50 = ?
Response: 1500 nM

====

- System Under Test: HIV-1 protease (Human immunodeficiency virus type 1 group M subtype B, UniProt P04585)
Result Type: Ki (nM)
Answer in nM, number only, no unit symbol.

Answered examples (2):
Compound	System Under Test	Readout Unit	Ki
CC(C)CN(C[C@@H](O)[C@H](Cc1ccccc1)NC(=O)OC1CO[C@H]2OCCC12)S(=O)(=O)c1ccc(CN)cc1 (stereo partly drawn) [Compound 118]	HIV-1 protease (Human immunodeficiency virus type 1 group M subtype B, UniProt P04585)	nM	0.9
CC(C)CN(C[C@@H](O)[C@H](Cc1ccccc1)NC(=O)OC1CO[C@H]2OCCC12)S(=O)(=O)c1cncc(N)c1 (stereo partly drawn) [Compound 166]	HIV-1 protease (Human immunodeficiency virus type 1 group M subtype B, UniProt P04585)	nM	0.28

Please look at the following compound next.
Query: Return Ki measured with HIV-1 protease (Human immunodeficiency virus type 1 group M subtype B, UniProt P04585) given this compound: CNCc1ccc(S(=O)(=O)N(CC(C)C)C[C@@H](O)[C@H](Cc2ccccc2)NC(=O)OC2CO[C@H]3OCCC23)cc1 (stereo partly drawn) [Compound 119]
Response: 1.1

====

Ki, HIV-1 protease (Human immunodeficiency virus type 1 group M subtype B): measured values
Answer in nM, number only, no unit symbol.

Compound	Ki / nM
O=C(N[C@@H](Cc1ccccc1)[C@H](O)CN1CCCC/C=C\CCOc2cccc(c2)S1(=O)=O)O[C@H]1CO[C@H]2OCCC21 (stereo partly drawn) [Compound 233]	2.7
C=CCCCCN(C[C@@H](O)[C@H](Cc1ccccc1)NC(=O)O[C@H]1CO[C@H]2OCCC21)S(=O)(=O)c1cccc(OCCC=C)c1 (stereo partly drawn) [Compound 232]	1.7
C=CCCCCOc1cccc(S(=O)(=O)N(CCCCC=C)C[C@@H](O)[C@H](Cc2ccccc2)NC(=O)O[C@@H]2CC3CCO[C@@H]3C2)c1 (stereo partly drawn) [Compound 225i]	5.3
COc1ccc(S(=O)(=O)N(CC(C)C)C[C@@H](O)[C@H](Cc2ccc(O)cc2)NC(=O)O[C@H]2CO[C@H]3OCCC32)cc1 (stereo partly drawn) [Compound 213]	1.3
Cc1ccc(S(=O)(=O)N(CC(C)C)C[C@@H](O)[C@H](Cc2ccccc2)NC(=O)OC2CO[C@H]3OCCC23)cc1CO (stereo partly drawn) [Compound 156]	0.97

Query: Entry O=C(N[C@@H](Cc1ccccc1)[C@H](O)CN(CCN1CCOCC1)S(=O)(=O)c1ccc(Cl)c(O)c1)OC1CO[C@H]2OCCC12 (stereo partly drawn) [Compound 154] : reported Ki = ?
Response: 7.8

Query: Also, CC(C)(C)OC(=O)NN(C[C@@H](O)[C@H](Cc1ccccc1)NC(=O)O[C@@H]1CC2CCO[C@@H]2C1)S(=O)(=O)c1ccc(F)c(N)c1 (stereo partly drawn) [Compound 191] please.
Response: 3

====

# key: entry, value: log10 IC50
- System Under Test: HIV-1 protease (Human immunodeficiency virus type 1 group M subtype B, UniProt P04585)
- Construct: made in house; host or cells: E. coli BL21 (dE3)pLysS, pET30a vector
- Assay Info: HIV-1 Protease Inhibition Assay
- Assay type: biochemical
- Condition Notes: fluorogenic substrate assay
Recall that a logarithmic scale is used here: each number is log10 of IC50 in nM.

Compound	System Under Test	Result Type	Reported
Cc1cc(S(=O)(=O)N(CC(C)C)C[C@@H](O)[C@H](Cc2ccccc2)NC(=O)O[C@@H]2CC3CCO[C@@H]3C2)ccc1CO (stereo partly drawn) [Compound 259]	HIV-1 protease (Human immunodeficiency virus type 1 group M subtype B, UniProt P04585)	log10 IC50	0.45
Cc1c(O)cccc1C(=O)N[C@@H](Cc1ccccc1)[C@H](O)CN(CC(C)C)S(=O)(=O)c1ccc(F)c(N)c1 [Compound 183]	HIV-1 protease (Human immunodeficiency virus type 1 group M subtype B, UniProt P04585)	log10 IC50	2.25
CC(C)(C)NC(=O)[C@@H]1C[C@@H]2CCCC[C@@H]2CN1C[C@@H](O)[C@H](Cc1ccccc1)NC(=O)OC1CC2CCO[C@@H]2C1 (stereo partly drawn) [Compound 143]	HIV-1 protease (Human immunodeficiency virus type 1 group M subtype B, UniProt P04585)	log10 IC50	0.48
COCc1ccc(S(=O)(=O)N(CC(C)C)C[C@@H](O)[C@H](Cc2ccccc2)NC(=O)OC2CC3CCO[C@@H]3C2)cc1 (stereo partly drawn) [Compound 130]	HIV-1 protease (Human immunodeficiency virus type 1 group M subtype B, UniProt P04585)	log10 IC50	-0.10

Query: Entry COc1ccc(S(=O)(=O)N(CC(C)C)C[C@H](O)[C@H](Cc2ccc(OCc3ccccc3)cc2)NC(=O)O[C@H]2CO[C@H]3OCCC32)cc1 (stereo partly drawn) [Compound 211] : reported log10 IC50 = ?
Response: 1.95

Query: Also, Cc1ccc(S(=O)(=O)N(CCN(C)C)C[C@@H](O)[C@H](Cc2ccccc2)NC(=O)OC2CO[C@H]3OCCC23)cc1CO (stereo partly drawn) [Compound 158] please.
Response: 2.02

====

Ki, HIV-1 protease (Human immunodeficiency virus type 1 group M subtype B): measured values
Answer in nM, number only, no unit symbol.

Answered examples (6):
Molecule	Result Type	Reported
O=C(N[C@@H](Cc1ccccc1)[C@H](O)CN1CCCC/C=C\COc2cccc(c2)S1(=O)=O)O[C@@H]1CC2CCO[C@@H]2C1 (stereo partly shown) [Compound 225g]	Ki	3.1
CC(C)CN(C[C@@H](O)[C@H](Cc1ccccc1)NC(=O)OC1CO[C@H]2OCCC12)S(=O)(=O)c1cccc(/C=N/O)c1 (stereo partly shown)	Ki	0.74
CC(C)CN(C[C@@H](O)[C@H](Cc1ccccc1)NC(=O)O[C@H]1C[C@H]2CCO[C@H]2C1)S(=O)(=O)c1cncc([N+](=O)[O-])c1	Ki	4.3
Cc1ccc(S(=O)(=O)OCc2ccc(S(=O)(=O)N(CC(C)C)C[C@@H](O)[C@H](Cc3ccccc3)NC(=O)OC3CO[C@H]4OCCC34)cc2)cc1 (stereo partly shown)	Ki	0.74
COc1ccc(S(=O)(=O)N(N)C[C@@H](O)[C@H](Cc2ccccc2)NC(=O)O[C@H]2CO[C@H]3OCCC32)cc1 (stereo partly shown)	Ki	17
CC(C)CN(C[C@@H](O)[C@H](Cc1ccccc1)NC(=O)OC1CC2CCO[C@@H]2C1)S(=O)(=O)c1cccc2cccnc12 (stereo partly shown)	Ki	3.7

Query: Return Ki measured with HIV-1 protease (Human immunodeficiency virus type 1 group M subtype B) given this molecule: Cc1ccc(S(=O)(=O)N(CCN(C)C)C[C@@H](O)[C@H](Cc2ccccc2)NC(=O)OC2CO[C@H]3OCCC23)cc1CO (stereo partly shown)
Response: 32

Query: Also, O=C(N[C@@H](Cc1ccccc1)[C@H](O)CN1CCCCCCCC(O)c2cccc(c2)S1(=O)=O)O[C@@H]1CC2CCO[C@@H]2C1 (stereo partly shown) please.
Response: 1.2

Query: Also, CC(C)CN(C[C@@H](O)[C@H](Cc1ccccc1)NC(=O)OC1CC2CCO[C@@H]2C1)S(=O)(=O)c1cccc(C=NO)c1 (stereo partly shown) please.
Response: 0.9

Query: Also, C=CCCCCN(C[C@@H](O)[C@H](Cc1ccccc1)NC(=O)O[C@H]1CO[C@H]2OCCC21)S(=O)(=O)c1cccc(OCCCC=C)c1 (stereo partly shown) please.
Response: 2.5

Query: Also, CC(C)CN(C[C@@H](O)[C@H](Cc1ccccc1)NC(=O)O[C@H]1CCOC1)S(=O)(=O)c1cncc(N)c1 please.
Response: 0.74

Query: Also, COc1ccc(S(=O)(=O)N(C[C@@H](O)[C@H](Cc2ccccc2)NC(=O)OC(C)(C)C)NC(=O)OC(C)(C)C)cc1 please.
Response: 166

Query: Also, CC(C)CN(C[C@@H](O)[C@H](Cc1ccccc1)NC(=O)O[C@H]1CCOC1)S(=O)(=O)c1ccc(Cl)c(O)c1 please.
Response: 1.1
